TARGET OR SYSTEM: recombinant human GALK1 (Homo sapiens, UniProt P51570)
Sequence (P51570 whole entry): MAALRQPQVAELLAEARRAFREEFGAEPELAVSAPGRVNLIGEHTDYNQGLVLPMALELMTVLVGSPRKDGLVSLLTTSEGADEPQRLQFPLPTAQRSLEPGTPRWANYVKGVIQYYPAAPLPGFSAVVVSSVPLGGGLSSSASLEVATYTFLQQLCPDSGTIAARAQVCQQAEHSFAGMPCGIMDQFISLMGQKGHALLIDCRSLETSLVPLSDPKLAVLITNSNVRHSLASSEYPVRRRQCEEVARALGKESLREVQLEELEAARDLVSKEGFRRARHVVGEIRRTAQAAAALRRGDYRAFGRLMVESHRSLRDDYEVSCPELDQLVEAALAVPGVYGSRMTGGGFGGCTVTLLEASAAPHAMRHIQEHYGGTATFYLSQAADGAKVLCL
TEST DESCRIPTION: hGALK1 biochemical activity assay (Kinase-Glo Plus, ATP depletion)
CONDITIONS USED: Tables 2-15; 35 μM ATP, 100 μM galactose, 1 h; bracketed figure after some values (e.g. −1.2) is undefined and not reported; read-out: hGALK IC50
PROPERTY LABEL: IC50 (µM)

As a guide, the following entries are already answered.
>>> assay_value("CC1=C(C(=O)Nc2cccc(C(=O)O)n2)C(c2ccccc2Cl)N=C(Nc2nc3ccccc3o2)N1 (centres unmarked)")
4.32
>>> assay_value("COC(=O)c1cncc(NC(=O)C2=C(C)NC(Nc3nc4ccccc4o3)=NC2c2ccccc2Cl)c1 (centres unmarked)")
21
>>> assay_value("CC1=C(C(=O)Nc2cc(-c3nn[nH]n3)ccn2)C(c2ccccc2Cl)N=C(Nc2nc3ccc(F)cc3o2)N1 (centres unmarked)")
0.77
>>> assay_value("CC1=C(C(=O)Nc2cc(C(=O)O)ccn2)C(c2ccc(C)cc2Cl)N=C(Nc2nc3ncccc3o2)N1 (centres unmarked)")
4.85
>>> assay_value("CC1=C(C(=O)Nc2cc(C(=O)O)ccn2)C(c2ccccc2Cl)N=C(Nc2nc3cccc([N+](=O)[O-])c3o2)N1 (centres unmarked)")
19.3
>>> assay_value("CC1=C(C(=O)NCc2ccc(C(=O)O)cc2)C(c2ccccc2Cl)N=C(Nc2nc3ccccc3o2)N1 (centres unmarked)")
3.43
>>> assay_value("COC(=O)c1cccc(CNC(=O)C2=C(C)NC(Nc3nc4ccccc4o3)=NC2c2ccccc2Cl)c1 (centres unmarked)")
4.85
>>> assay_value("CC1=C(C(=O)Nc2ccc(C(N)=O)cc2)C(c2ccccc2Cl)N=C(Nc2nc3ccccc3o2)N1 (centres unmarked)")
4.32
>>> assay_value("CC1=C(C(=O)Nc2ccc(N3CCNCC3)cc2)C(c2ccccc2Cl)N=C(Nc2nc3ccccc3o2)N1 (centres unmarked)")
68.5
>>> assay_value("CC1=C(C(=O)Nc2cc(C(=O)O)ccn2)[C@H](c2ccc(C)cc2Cl)N=C(Nc2nc3cccc(N)c3o2)N1")
0.09

A = CC1=C(C(=O)NCc2ccccc2O)C(c2ccccc2Cl)N=C(Nc2nc3ccccc3o2)N1 (centres unmarked)
B = CC1=C(C(=O)Nc2ncc(C(=O)O)s2)C(c2ccccc2Cl)N=C(Nc2nc3ccccc3o2)N1 (centres unmarked)
Q) Which entry has a larger number for IC50, A or B ? Could you answer with the label of the item you picked?
A) A
(A: 6.85 µM, B: 1.72 µM)

I = CC1=C(C(=O)NCc2cnn(C)c2)C(c2ccc(C)cc2Cl)N=C(Nc2nc3ccc(F)c(N)c3o2)N1 (centres unmarked)
II = CC1=C(C(=O)Nc2cc(C(=O)O)ccn2)C(c2ccc(C)cc2Cl)N=C(Nc2nc3cccc(N)c3o2)N1 (racemic)
Q) Which entry has a larger number for IC50, I or II ? Could you answer with the label of the item you picked?
A) II

----------
TARGET OR SYSTEM: recombinant mouse GALK1 (Mus musculus, UniProt Q9R0N0)
Sequence (Q9R0N0 whole entry): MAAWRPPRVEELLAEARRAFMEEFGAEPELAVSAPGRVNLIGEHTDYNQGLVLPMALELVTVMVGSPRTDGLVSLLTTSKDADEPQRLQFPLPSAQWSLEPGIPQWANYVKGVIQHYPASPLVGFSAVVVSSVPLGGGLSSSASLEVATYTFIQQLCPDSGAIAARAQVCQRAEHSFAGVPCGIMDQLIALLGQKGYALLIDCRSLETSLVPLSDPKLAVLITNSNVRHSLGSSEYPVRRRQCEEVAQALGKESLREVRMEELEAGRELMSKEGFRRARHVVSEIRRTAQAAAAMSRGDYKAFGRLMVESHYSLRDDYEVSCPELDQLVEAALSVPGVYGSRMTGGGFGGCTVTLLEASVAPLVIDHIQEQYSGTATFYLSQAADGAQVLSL
TEST DESCRIPTION: mGALK1 biochemical activity assay (Kinase-Glo Plus, ATP depletion)
CONDITIONS USED: recombinant mouse GALK1, Kinase-Glo Plus ATP depletion; bracketed figure in the cell, e.g. (−1.2), is not defined in the text shown; read-out: mGALK
pIC50: −log10 of the molar value.
PROPERTY LABEL: pIC50

As a guide, the following entries are already answered.
>>> assay_value("CC1=C(C(=O)Nc2nncs2)C(c2cc(Cl)ccc2Cl)N=C(Nc2nc3ccccc3o2)N1 (stereo not shown) [Compound 270]")
4.96
>>> assay_value("O=C1CC(C(=O)O)CC2=C1C(c1ccccc1Cl)N=C(Nc1nc3ccccc3o1)N2 (stereo not shown) [Compound 276]")
5.16
>>> assay_value("CC1=C(C(=O)Nc2nncs2)C(c2ccccc2C)N=C(Nc2nc3ccccc3o2)N1 (stereo not shown) [Compound 267]")
4.66
>>> assay_value("CNC(=O)C1CC(=O)C2=C(C1)NC(Nc1nc3ccccc3o1)=NC2c1ccccc1Cl (stereo not shown) [Compound 278]")
5.16
>>> assay_value("CCOC(=O)N1C(Nc2nc3ccccc3o2)=NC(c2ccccc2Cl)C(C(=O)Nc2cc(C(=O)O)ccn2)=C1C (stereo not shown) [Compound 274]")
4.71

I = O/N=C1\CCCC2=C1C(c1ccccc1Cl)N=C(Nc1nc3ccccc3o1)N2 (stereo not shown) [Compound 244]
II = CN(C)C(=O)C1CC(=O)C2=C(C1)NC(Nc1nc3ccccc3o1)=NC2c1ccccc1Cl (stereo not shown) [Compound 277]
Q) Hi there, can you help? I need to know whether I or II has lower measured pIC50. Could you answer with the label of the item you picked?
A) I

----------
TEST DESCRIPTION: rat microsomal stability (RLM)
CONDITIONS USED: microsomal stability half-life
PROPERTY LABEL: Metab. Stabil. (m)

>>> assay_value("COC(=O)c1ccc(NC(=O)C2=C(C)NC(Nc3nc4ccccc4o3)=NC2c2ccccc2Cl)cn1 (stereo not drawn) [Compound 166]")
4.678
>>> assay_value("CC1=C(C(=O)NCc2ccc(F)cc2)C(c2ccccc2Cl)N=C(Nc2nc3ccccc3o2)N1 (stereo not drawn) [Compound 217]")
11.34
>>> assay_value("CC1=C(C(=O)Nc2ccccc2O)C(c2ccccc2Cl)N=C(Nc2nc3ccccc3o2)N1 (stereo not drawn) [Compound 161]")
17.94
>>> assay_value("CC1=C(C(=O)NCc2cnn(C(C)(C)C)c2)C(c2ccc(C)cc2Cl)N=C(Nc2nc3ccc(F)c(N)c3o2)N1 (stereo not drawn) [Compound 132]")
14.41
>>> assay_value("CC1=C(C(=O)NCc2cnn(C)c2)C(c2ccc(C)cc2Cl)N=C(Nc2nc3ccc(F)c(N)c3o2)N1 (stereo not drawn) [Compound 126]")
17.1
>>> assay_value("CCn1cc(CNC(=O)C2=C(C)NC(Nc3nc4ccc(F)c(N)c4o3)=NC2c2ccccc2Cl)cn1 (stereo not drawn) [Compound 136]")
17.72

A = CC1=C(C(=O)NCc2cccc(CO)c2)C(c2ccccc2Cl)N=C(Nc2nc3ccccc3o2)N1 (stereo not drawn) [Compound 227]
B = CCn1cc(CNC(=O)C2=C(C)NC(Nc3nc4cccc(N)c4o3)=NC2c2ccc(Cl)cc2Cl)cn1 (stereo not drawn) [Compound 120]
C = CC1=C(C(=O)NCc2cccnc2)C(c2ccccc2Cl)N=C(Nc2nc3ccccc3o2)N1 (stereo not drawn) [Compound 221]
Q) Please give the order of these compounds when sorted by Metab. Stabil. (m), largest value leading. # list labels per requested ordering
A) B, A, C

----------
TARGET OR SYSTEM: recombinant human GALK1 (Homo sapiens, UniProt P51570)
TEST DESCRIPTION: hGALK1 biochemical activity assay (Kinase-Glo Plus, ATP depletion)
CONDITIONS USED: Tables 2-15; 35 μM ATP, 100 μM galactose, 1 h; bracketed figure after some values (e.g. −1.2) is undefined and not reported; read-out: hGALK IC50
PROPERTY LABEL: IC50 (µM)

As a guide, the following entries are already answered.
>>> assay_value("CC1=C(C(=O)NCc2cnn(Cc3ccccc3)c2)C(c2ccc(C)cc2Cl)N=C(Nc2nc3cccc(N)c3o2)N1 (stereo not shown)")
0.39
>>> assay_value("CC1=C(C(=O)Nc2cc(C(=O)O)ccn2)C(c2cccc(Cl)c2Cl)N=C(Nc2nc3ccc(F)cc3o2)N1 (stereo not shown)")
8.63
>>> assay_value("CC1=C(C(=O)Nc2cc(C(=O)O)ccn2)C(c2ccccc2Cl)N=C(Nc2nc3ccc(C)cc3o2)N1 (stereo not shown)")
5.44
>>> assay_value("CC1=C(C(=O)Nc2cc(C(=O)O)ccn2)C(c2ccc(N3CCCC3)cc2Cl)N=C(Nc2nc3ccc(F)cc3o2)N1 (stereo not shown)")
1.09
>>> assay_value("CC1=C(C(=O)Nc2cc(CO)ccn2)C(c2ccccc2Cl)N=C(Nc2nc3ccccc3o2)N1 (stereo not shown)")
3.06

A = CC1=C(C(=O)Nc2cc(C(=O)O)ccn2)[C@H](c2ccccc2Cl)N=C(Nc2nc3ccc(F)cc3o2)N1
B = CC1=C(C(=O)NCCN(C)C)C(c2ccccc2Cl)N=C(Nc2nc3ccccc3o2)N1 (stereo not shown)
Q) Hi there, can you help? I need to know whether A or B has lower measured IC50. Could you answer with the label of the item you picked?
A) A

----------
TARGET OR SYSTEM: hGALK1m (Homo sapiens, UniProt P51570, E253A/K252A)
Construct: made in house; host or cells: E. coli HMS174
Sequence (P51570 whole entry K252A/E253A): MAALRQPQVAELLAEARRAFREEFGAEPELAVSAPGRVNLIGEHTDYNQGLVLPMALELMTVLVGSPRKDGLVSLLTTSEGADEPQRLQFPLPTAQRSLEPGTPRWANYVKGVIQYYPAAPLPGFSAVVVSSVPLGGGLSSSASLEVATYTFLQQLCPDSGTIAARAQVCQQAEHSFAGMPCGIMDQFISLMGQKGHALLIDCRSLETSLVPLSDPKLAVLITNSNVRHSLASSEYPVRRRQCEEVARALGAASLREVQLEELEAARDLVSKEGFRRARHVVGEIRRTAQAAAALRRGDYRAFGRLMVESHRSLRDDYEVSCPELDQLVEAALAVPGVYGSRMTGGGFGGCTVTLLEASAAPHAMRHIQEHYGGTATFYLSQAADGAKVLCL
TEST DESCRIPTION: in vitro hGALK1 activity assay of the structure-based optimisation (Example 12, Tables 17-20)
Type: biochemical
CONDITIONS USED: Tables 18-19; read-out: Max Response (%)
PROPERTY LABEL: Emax (%)

>>> assay_value("CC1=C(C(=O)Nc2cc(C(=O)O)ccn2)C(c2ccccc2Cl)N=C(Nc2nc3cccc(OC(F)(F)F)c3o2)N1 (stereo not drawn) [Compound 21]")
88
>>> assay_value("CC1=C(C(=O)Nc2cc(C(=O)O)ccn2)C(c2ccccc2Cl)N=C(Nc2nc3cc(N)ccc3o2)N1 (stereo not drawn) [Compound 12]")
100
>>> assay_value("COc1cccc(C2N=C(Nc3nc4ccc(F)cc4o3)NC(C)=C2C(=O)Nc2cc(C(=O)O)ccn2)c1Cl (stereo not drawn) [Compound 52]")
100
>>> assay_value("CC1=C(C(=O)Nc2cc(C(=O)O)ccn2)C(c2ccccc2Cl)N=C(Nc2nc3ccc(F)cc3o2)N1 (racemic) [Compound 1]")
100
>>> assay_value("CC1=C(C(=O)Nc2cc(C(=O)O)ccn2)C(c2ccccc2Cl)N=C(Nc2nc3cc(F)ccc3o2)N1 (stereo not drawn) [Compound 13]")
100
>>> assay_value("CC1=C(C(=O)Nc2cc(C(=O)O)ccn2)C(c2cccc(F)c2Cl)N=C(Nc2nc3ccc(F)cc3o2)N1 (stereo not drawn) [Compound 48]")
100
